Provenance of the data: ChEMBL document CHEMBL6134848

- Target system: Cytochrome P450 3A4 (Homo sapiens, UniProt P08684)
- Sequence (P08684 whole entry): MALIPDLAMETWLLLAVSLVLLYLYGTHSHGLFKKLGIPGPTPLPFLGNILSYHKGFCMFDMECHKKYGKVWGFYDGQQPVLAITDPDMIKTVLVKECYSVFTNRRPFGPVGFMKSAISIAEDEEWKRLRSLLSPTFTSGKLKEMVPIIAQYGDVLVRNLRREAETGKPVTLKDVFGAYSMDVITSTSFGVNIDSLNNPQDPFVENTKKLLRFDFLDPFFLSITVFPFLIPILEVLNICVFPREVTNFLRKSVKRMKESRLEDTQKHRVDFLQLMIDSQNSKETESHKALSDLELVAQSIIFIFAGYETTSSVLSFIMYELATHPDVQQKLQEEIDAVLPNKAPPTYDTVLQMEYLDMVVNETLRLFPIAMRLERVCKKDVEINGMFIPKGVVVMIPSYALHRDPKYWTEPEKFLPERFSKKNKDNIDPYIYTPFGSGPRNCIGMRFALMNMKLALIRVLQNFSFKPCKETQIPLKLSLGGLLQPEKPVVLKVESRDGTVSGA
- Measurement notes: Inhibition of CYP3A4 in human liver microsomes using midazolam as substrate incubated for 15 to 45 mins by
- Assay type: ADME, Microsome
pIC50: −log10 of the molar value.
Endpoint: pIC50

*Q* Returns the measured pIC50 for the input molecule. Input: [2H]C([2H])([2H])c1cc(C#N)cc(C([2H])([2H])[2H])c1Oc1nc(NC2CCN(Cc3ccc(S(N)(=O)=O)cc3)CC2)nc2ccsc12
*A* < 5.00

* * *

- Measurement notes: Drug metabolism in human liver microsomes assessed as metabolic fraction at 1 uM measured up to 45 mins by LC/MS/MS analysis
- Format: ADME, Microsome
- Cond: liver microsomes, read-out: Fm
Endpoint: metabolised at 0.75 h, 1 µM (%)
Kindly answer with a numeric value in %, unit omitted.

*Q* Returns the measured metabolised at 0.75 h, 1 µM for the input compound. Input: Cc1cc(/C=C/C#N)cc(C)c1Nc1ccnc(Nc2ccc(C#N)cc2)n1
*A* 13

* * *

- Target system: Human immunodeficiency virus type 1 reverse transcriptase (Human immunodeficiency virus 1)
- Measurement notes: Inhibition of recombinant wild type HIV-1 reverse transcriptase incubated for 40 mins in presence of poly(rA) template/oligo(dT)16 primer by Pico-Green dye based analysis
Please respond with reported pIC50 for every item in the list.
Note on pIC50: it is the negative log10 of concentration, concentration in mol/L.

*Q* Returns the measured pIC50 for the input compound. Input: [2H]C([2H])([2H])c1cc(C#N)cc(C)c1Oc1nc(NC2CCN(Cc3ccc(S(N)(=O)=O)cc3)CC2)nc2scnc12
*A* 6.82

*Q* Returns the measured pIC50 for the input compound. Input: Cc1cc(/C=C/C#N)cc(C)c1Nc1ccnc(Nc2ccc(C#N)cc2)n1
*A* 7.70

*Q* Returns the measured pIC50 for the input compound. Input: [2H]C([2H])([2H])c1cc(C#N)cc(C)c1Oc1nc(NC2CCN(Cc3ccc(S(N)(=O)=O)cc3)CC2)nc2ccsc12
*A* 6.72

*Q* Returns the measured pIC50 for the input compound. Input: [2H]C([2H])([2H])c1cc(C#N)cc(C)c1Oc1nc(NC2CCN(Cc3ccc(C(N)=O)cc3)CC2)nc2ccsc12
*A* 6.82

*Q* Returns the measured pIC50 for the input compound. Input: [2H]C([2H])([2H])c1cc(C#N)cc(C([2H])([2H])[2H])c1Oc1nc(NC2CCN(Cc3ccc(C(N)=O)cc3)CC2)nc2ccccc12
*A* 6.68

*Q* Returns the measured pIC50 for the input compound. Input: [2H]C([2H])([2H])c1cc(C#N)cc(C([2H])([2H])[2H])c1Oc1nc(NC2CCN(Cc3ccc(C(N)=O)cc3)CC2)nc2sccc12
*A* 6.85

*Q* Returns the measured pIC50 for the input compound. Input: [2H]C([2H])([2H])c1cc(C#N)cc(C([2H])([2H])[2H])c1Oc1nc(NC2CCN(Cc3ccc(S(N)(=O)=O)cc3)CC2)nc2sccc12
*A* 6.80

* * *

Please respond with reported pIC50 for every item in the list.
- Target system: Human immunodeficiency virus type 1 reverse transcriptase (Human immunodeficiency virus 1, UniProt Q72547)
- Measurement notes: Inhibition of recombinant wild type HIV-1 reverse transcriptase incubated for 40 mins in presence of poly(rA) template/oligo(dT)16 primer by Pico-Green dye based analysis
Note on pIC50: it is the negative log10 of concentration, concentration in mol/L.

*Q* Returns the measured pIC50 for the input compound. Input: [2H]C([2H])([2H])c1cc(C#N)cc(C([2H])([2H])[2H])c1Oc1nc(NC2CCN(Cc3ccc(S(N)(=O)=O)cc3)CC2)nc2ccsc12
*A* 6.72

*Q* Returns the measured pIC50 for the input compound. Input: [2H]C([2H])([2H])c1cc(-c2ccc(C#N)cc2)cc(C)c1Nc1ccnc(Nc2ccc(C#N)cc2)n1
*A* 6.42

*Q* Returns the measured pIC50 for the input compound. Input: [2H]C([2H])([2H])c1cc(C#N)cc(C)c1Oc1nc(NC2CCN(Cc3ccc(S(N)(=O)=O)cc3)CC2)nc2sccc12
*A* 6.80

*Q* Returns the measured pIC50 for the input compound. Input: [2H]C([2H])([2H])c1cc(/C=C/C#N)cc(C([2H])([2H])[2H])c1Nc1ccnc(Nc2ccc(C#N)cc2)n1
*A* 7.70

*Q* Returns the measured pIC50 for the input compound. Input: [2H]C([2H])([2H])c1cc(C#N)cc(C)c1Oc1nc(NC2CCN(Cc3ccc(C(N)=O)cc3)CC2)nc2scnc12
*A* 6.77

*Q* Returns the measured pIC50 for the input compound. Input: [2H]C([2H])([2H])c1cc(/C=C/C#N)cc(C)c1Nc1ccnc(Nc2ccc(C#N)cc2)n1
*A* 7.52

*Q* Returns the measured pIC50 for the input compound. Input: [2H]C([2H])([2H])c1cc(C#N)cc(C([2H])([2H])[2H])c1Oc1nc(NC2CCN(Cc3ccc(C(N)=O)cc3)CC2)nc2ccsc12
*A* 6.85
